These measurements were taken from paper PMC3161630.

# Tested on: prostate cancer PC-3 cells
# Test Description: Cell proliferation assay (MTT), PC-3
# Assay type: cell-based, human
# Applied Conditions: Homo sapiens, PC-3, MTT assay; table: mean ± SEM (n)
Experimental Endpoint: EC50 (nM)
Give bare numbers, in nM.

query: I'd like to know its EC50. The compound in question is `CC[C@@]1(O)C(=O)OCc2c1cc1n(c2=O)Cc2cc3ccccc3nc2-1`
result: 20.8

====

# Tested on: pancreatic carcinoid BON cells
# Test Description: Cell proliferation assay (MTT), BON
# Assay type: cell-based, human
# Applied Conditions: table: mean ± SEM (n)
Experimental Endpoint: pEC50
Give bare numbers, as −log10 of the molar value.

query: Report pEC50 for CC[C@@]1(O)C(=O)OCc2c1cc1n(c2=O)Cc2cc3ccccc3nc2-1 [CPT, camptothecin] please.
result: 6.77
